target_under_test: Cellular tumor antigen p53 (Homo sapiens)
protocol_summary: TOX21_p53_BLA_p2_ratio: Tox21 HCT-116 p53 Agonism Beta-lactamase Assay, Ratio, Phase 2 (AID 2283592)
Inconclusive results are not listed. Active and inactive are the calls of the source. Rule for the calls: active = hit-call score of the fitted dose curve at least 0.9, where 1 is the maximum; inconclusive = response in the unintended direction; inactive = score below 0.9.
Give one outcome, nothing more. List: active, inactive

Lookup: For this compound, state the assay outcome: CCCCCCCCOCCC#N
Found: inactive

Lookup: Can you check CCN(CC)c1ccc(N)cc1 next?
Found: active

Lookup: What do you have for CC(=O)Oc1cccc(O)c1 ?
Found: inactive

Lookup: What do we get for COc1ccccc1OCC(O)CO (stereo not drawn) ?
Found: inactive

Lookup: How about this compound: Cc1c(NC(=O)c2cccnc2)c(=O)n(-c2ccccc2)n1C
Found: inactive

Lookup: Okay, and O=[N+]([O-])c1ccc2c(c1)Cc1ccccc1-2 ?
Found: inactive

Lookup: Please give the result for CC(C)(O)C(=O)O too.
Found: inactive

Lookup: What about this compound? O=S(O)(O)=S
Found: inactive

Lookup: Record: COc1ccccc1N1CCN(CCCCNC(=O)c2ccc(-c3ccc(C(C)=O)cc3)cc2)CC1
Found: inactive

Lookup: CCCCCCCC/C=C\CCCCCCCCN , same question.
Found: inactive

Lookup: // query: COc1ccc(Cl)cc1C(=O)NCCc1ccc(S(=O)(=O)NC(=O)NC2CCCCC2)cc1
Found: inactive

Lookup: Next record, please: NC(=O)COCCN1CCN(C(c2ccccc2)c2ccc(Cl)cc2)CC1 (stereo not drawn)
Found: inactive

Lookup: Proceed to CCOC(=O)CC(=O)c1cc(F)c(Cl)nc1Cl
Found: inactive
